Exercise: for every item that follows, state its recorded melting point.
Answers are plain numbers, in °C.

• CC(C)C(C)(C)C(C)(C)C = -36
• O=C(OCCc1cc([N+](=O)[O-])c(CCOC(=O)c2ccccc2)cc1[N+](=O)[O-])c1ccccc1 [(2,5-dinitrobenzene-1,4-diyl)diethane-2,1-diyl dibenzoate] = 158
• CCCCCCCl [1-Chlorohexane] = -94
• O=C(C(=O)c1ccccc1)c1ccccc1 = 95
• O=C(O)c1ccc(F)cc1O = 188
• N#Cc1ccccc1Cl = 45
• CCCCOc1cc(C(=O)NCCN(CC)CC)c2ccccc2n1 = 64.5
• CC(=O)C(C)=NO = 76
• O=[N+]([O-])c1c(Cl)c(Cl)cc(Cl)c1Cl [2,3,5,6-tetrachloronitrobenzene] = 100
• CCCCCCCCCCCC(=O)O = 44

Batch: melting point for all items listed.
1. Nc1cccc2c(=O)[nH][nH]c(=O)c12 [5-Amino-2,3-dihydrophthalazine-1,4-dione]
2. c1ccc(CN(Cc2ccccc2)Cc2ccccc2)cc1
3. Nc1nc2c(ncn2[C@@H]2O[C@@H](CO)[C@H](O)[C@H]2O)c(=O)[nH]1

Solution:
1. 319
2. 93
3. 239

----------
Criterion: melting point meeting or surpassing 50 °C. Met: Satisfied. Not met: Not satisfied.

- CCOC(=O)c1csc(C)n1 [ethyl 2-methylthiazole-4-carboxylate]: Satisfied
- O=CC(=Cc1ccco1)c1ccccc1: Satisfied

Next up:
Exercise: Check this molecule for melting point at or above 50 °C: CC(C)(O)CCc1ccccc1
Solution: Not satisfied

----------
Exercise: for every item that follows, state its recorded melting point.
One number for each entry, in °C.

Sample answers from the record:
• c1ccc(CCc2ccccc2)cc1 [1,2-Diphenylethane] = 51.5
• C[C@H](Cc1ccc(O)c(O)c1)[C@@H](C)Cc1ccc(O)c(O)c1 [nordihydroguaiaretic acid] = 186
• CC(C)C(=O)C(C)C = -69
• COc1ccc(/C=C/c2cccc(OC)c2O)cc1OC [2-[(E)-2-(3,4-Dimethoxyphenyl)vinyl]-6-methoxyphenol] = 165
• CC(=O)Nc1ccc(O)cc1 [4-acetamidophenol] = 170
• Clc1c(Cl)c(Cl)c(Cl)c(Cl)c1Cl = 230
• CC1CCCCC1 [Methylcyclohexane] = -127
• COC(=O)c1ccc(C)c(C)c1 [methyl 3,4-dimethylbenzoate] = 36

Batch: melting point for all items listed.
1. CC(C)(C)c1ccc(B(O)O)cc1
2. O=C(O)CCCCCCCBr
3. COS(=O)(=O)c1ccc(C)cc1 [methyl_p-toluenesulfonate]

Solution:
1. 194
2. 39
3. 79

Batch: melting point for all items listed.
1. Cc1ccc(C(=O)c2cc(Cl)cc(Cl)c2)c(C)c1
2. O=C(O)c1ccc(Br)cc1
3. CCOC(=O)c1ccc(O)cc1 [ethyl 4-hydroxybenzoate]
4. O=C1c2ccccc2C(=O)c2c(Cl)cccc21
5. O=C(Cl)c1ccco1 [2-furoyl chloride]
6. Cc1cc(I)cc(C)c1O
7. Cc1ccc(-c2ccc(/C=C3\N=C(c4ccccc4)OC3=O)o2)cc1
8. Cc1ccc(O)c(O)c1

Solution:
1. 57
2. 253
3. 117
4. 160
5. -1
6. 97
7. 150
8. 68

Batch: melting point for all items listed.
1. CC(=O)c1ccccc1C(=O)O
2. CC(C)(C)c1ccc(C2CCC3(CC2)Cc2ccc(O)cc2C3)cc1 (stereo unspecified)

Solution:
1. 116
2. 131

----------
// classify: if (melting point < 100 °C) met else not met

Example entries and their recorded answers appear below.
- C(=C\c1ccccc1)/c1ccccc1 [trans-stilbene]: not met
- Clc1ccc(Cl)nn1: met
- Cc1ccc(C(=O)c2ccccc2C(=O)O)cc1: not met

Exercise: Item CCCC1=NNC(=O)C1 : melting point beneath 100 °C, strictly?
Solution: not met

Exercise: Item O=[N+]([O-])c1ccc(Cl)c(Cl)c1 : melting point beneath 100 °C, strictly?
Solution: met

Exercise: Item Clc1ccc(Cl)cc1 [p-dichlorobenzene] : melting point beneath 100 °C, strictly?
Solution: met

Exercise: Item CCC1(CC)C(=O)NC(=O)NC1=O [barbital] : melting point beneath 100 °C, strictly?
Solution: not met

Exercise: Item CCP(=O)(CC)CC [triethylphosphine oxide] : melting point beneath 100 °C, strictly?
Solution: met

Exercise: Item CCCCOC(=O)c1ccccc1C(=O)OCCCC [Dibutyl phthalate] : melting point beneath 100 °C, strictly?
Solution: met

Exercise: Item CCC1=Nc2ccccc2C1(C)C(=O)OC (configuration not stated) [methyl 2-ethyl-3-methyl-3H-indole-3-carboxylate] : melting point beneath 100 °C, strictly?
Solution: met

Exercise: Item Cc1c[n+]([O-])ccc1[N+](=O)[O-] [4-nitro-3-picoline n-oxide] : melting point beneath 100 °C, strictly?
Solution: not met

Exercise: Item O=C(O)C(F)(F)F : melting point beneath 100 °C, strictly?
Solution: met

Exercise: Item CCCC1C(=O)N2C(N(C)C)=Nc3ccc(C)cc3N2C1=O (configuration not stated) : melting point beneath 100 °C, strictly?
Solution: not met

Exercise: Item OC[C@@H](O)[C@H](O)[C@@H](O)CO : melting point beneath 100 °C, strictly?
Solution: met

----------
Criterion: melting point meeting or surpassing 90 °C. Met: 1.0. Not met: 0.0.

Example entries and their recorded answers appear below.
* Cc1c(O)cccc1O [2-methylresorcinol] | 1.0
* C=Cc1cccc(C(=O)O)c1 [m-vinylbenzoic_acid] | 1.0
* N#CCc1cccc(C#N)c1 [m-cyano_phenylacetonitrile] | 0.0

Exercise: Check this molecule for melting point at or above 90 °C: NCCc1ccc(O)cc1 [tyramine]
Solution: 1.0

Exercise: Check this molecule for melting point at or above 90 °C: C1COCCO1 [1,4-dioxane]
Solution: 0.0

----------
Note: every record was labeled by where its melting point sits among lo (below 7 °C), mid (7 °C to below 90 °C), hi (90 °C or more)

Example entries and their recorded answers appear below.
- C[Si]1(C)O[Si](C)(C)O[Si](C)(C)O[Si](C)(C)O[Si](C)(C)O1: lo
- CCCCN [Butan-1-amine]: lo
- O=C(O)c1c(P(c2ccccc2)c2ccccc2)ccc2ccccc12: hi
- CCCCC=O [Pentanal]: lo

Exercise: Category of CCCCc1ccc(/N=N/c2ccc(OC(=O)CC)cc2)cc1 [4-[(E)-(4-butylphenyl)diazenyl]phenyl propanoate] , please.
Solution: mid

Exercise: Category of CCCCc1ccc(NC(C)=O)cc1 [N-(4-butylphenyl)acetamide] , please.
Solution: hi

Exercise: Category of COC(=O)c1ccc(Cl)cc1 [methyl_4-chlorobenzoate] , please.
Solution: mid

Exercise: Category of O=[N+]([O-])c1ccc(O)c([N+](=O)[O-])c1 [2,4-Dinitrophenol] , please.
Solution: hi

Exercise: Category of CCC(C)c1ccccc1O (stereo not given) , please.
Solution: mid

----------
Exercise: for every item that follows, state its recorded melting point.
Give bare numbers, in °C.

Sample answers from the record:
• O=CNC1C/C=C/CC(NC=O)C/C=C/C1 (stereo not given) [N,N'-(3E,8E)-cyclodeca-3,8-diene-1,6-diyldiformamide] = 234
• CC(C)CC1=C/C(=C/c2ccc(-c3ccc([N+](=O)[O-])cc3)o2)C(=O)O1 = 163

Batch: melting point for all items listed.
1. Oc1cccc2ccccc12 [1-naphthol]
2. O=C(OC(=O)C(F)(F)F)C(F)(F)F [Trifluoroacetic anhydride]
3. O=C(O)c1ccccc1Cl [2-Chlorobenzoic acid]

Solution:
[96, -63, 140]

----------
Exercise: for every item that follows, state its recorded melting point.
Give bare numbers, in °C.

Sample answers from the record:
• COC(=O)c1ccc(N)cc1 [Methyl 4-aminobenzoate] = 114
• CCCCCCCCCCCCCCCCCC(=O)O[C@H]1[C@H](O[C@@H]2[C@@H](C)[C@H](O[C@H]3C[C@@](C)(OC)[C@@H](O)[C@H](C)O3)[C@@H](C)C(=O)O[C@H](CC)[C@@](C)(O)[C@H](O)[C@@H](C)C(=O)[C@H](C)C[C@@]2(C)O)O[C@H](C)C[C@@H]1N(C)C = 102
• C=CCOc1ccc(CC(=O)O)cc1Cl = 92

Batch: melting point for all items listed.
1. CCOC(=O)c1cc(C)n(-c2ccc(C(F)(F)F)cc2)c1C
2. Cc1ccccc1CCl [2-methylbenzyl chloride]
3. C=C(c1ccccc1)c1ccccc1
4. Clc1cc(Br)ccc1I
5. CCCC(C)Br (centres undefined)
6. c1ccc(NNc2ccccc2)cc1 [hydrazobenzene]

Solution:
67.5
2
8
34
-96
125

----------
observationType: melting point (°C)
One number for each entry, in °C.

Sample answers from the record:
- C/C=C/C(=O)O [trans-crotonic acid]: 72
- CCOC(=O)c1ccc([N+](=O)[O-])o1 [ethyl 5-nitro-2-furoate]: 101
- OB(O)c1cccc(OC(F)(F)F)c1 [3-(trifluoromethoxy)benzeneboronic acid]: 80
- O=[N+]([O-])c1ccccc1O [2-Nitrophenol]: 44
- Cc1cccc([N+](=O)[O-])c1 [3-nitrotoluene]: 16
- Cc1ccccc1N [o-toluidine]: -24

Batch: melting point for all items listed.
1. O=[N+]([O-])c1ccccc1 [nitrobenzene]
2. O=C(NC/1=N/C(=O)c2ncn(c2N\1)COCCO)C [N-Acetylacyclovir]
3. N#CC(c1ccccc1[N+](=O)[O-])c1ccccc1[N+](=O)[O-] [bis(2-nitrophenyl)acetonitrile]
4. OC[C@H]1O[C@](O)(CO)[C@@H](O)[C@@H]1O [D-fructose]

Solution:
1: 6; 2: 217; 3: 110; 4: 108
